system: lipogenesis in swine adipose tissue; test: percent inhibition of lipogenesis from radioactive glucose in pig (swine) adipose tissue slices; type: cell-based; settings: 100 micrograms per milliliter, 37° C., 2 hours
parameter: Percent Inhibition of lipogenesis compared to control

Item C=CCNC(=O)C1COc2ccc(C)cc2O1 (centres unmarked) [Compound 7] has what recorded Percent Inhibition of lipogenesis compared to control?
55%

Percent Inhibition of lipogenesis compared to control for C=CCNC(=O)C1COc2ccccc2O1 (centres unmarked) [Compound 1] ?
75%

Looking for the measured Percent Inhibition of lipogenesis compared to control of C=CCNC(=O)C1COc2cc(C)ccc2O1 (centres unmarked) [Compound 6] , can you help?
80%

Quick check: Percent Inhibition of lipogenesis compared to control of C=CCNC(=O)C1COc2ccc(F)cc2O1 (centres unmarked) [Compound 8] ?
72%

Need Percent Inhibition of lipogenesis compared to control, item C=CCNC(=O)[C@@H]1Oc2ccccc2O[C@@H]1C (relative stereo) [Compound 4]
68%

Quick one: Percent Inhibition of lipogenesis compared to control for C=CCNC(=O)C1COc2cc(Cl)ccc2O1 (centres unmarked) [Compound 3A] ?
38%

Reported Percent Inhibition of lipogenesis compared to control, molecule C=CCNC(=O)C1COc2cc(C(C)(C)C)ccc2O1 (centres unmarked) [Compound 5] : ____
36%

Could you share which Percent Inhibition of lipogenesis compared to control value was measured for C=CCNC(=O)C1(C)COc2ccccc2O1 (centres unmarked) [Compound 2] ?
41%
